- System: M21
- EXPERIMENT_NOTES: Cell cycle arrest in human M21 cells assessed as accumulation at SubG1 phase at 2 to 5 times IC50 measured after 24 hrs by DAPI staining based flow cytometry (reference value: 5%)
- Assay type: functional
Please respond with reported Activity for every item in the list.
Numbers only, in %.

[
  {
    "COMPOUND_STRUCTURE": "COc1cc(OC)cc(OS(=O)(=O)c2ccc(N3CCCC3=O)cc2)c1",
    "UNITS_TEXT": "%",
    "Activity": 12.1
  },
  {
    "COMPOUND_STRUCTURE": "O=C1CCCN1c1ccc(S(=O)(=O)Oc2cc(Br)cc(Br)c2)cc1",
    "UNITS_TEXT": "%",
    "Activity": 3.9
  },
  {
    "COMPOUND_STRUCTURE": "O=C1CCCN1c1ccc(S(=O)(=O)Oc2cccc(I)c2)cc1",
    "UNITS_TEXT": "%",
    "Activity": 4.3
  }
]

Record Activity per entry; entries follow.
1. COc1cc(NS(=O)(=O)c2ccc(N3CCCC3=O)cc2)cc(OC)c1
2. O=C1CCCN1c1ccc(S(=O)(=O)Nc2cc(Br)cc(Br)c2)cc1
3. COc1cc(OS(=O)(=O)c2ccc(N3CCCC3=O)cc2)cc(OC)c1OC
4. COc1cc(NS(=O)(=O)c2ccc(N3CCCC3=O)cc2)cc(OC)c1OC
5. O=C1CCCN1c1ccc(S(=O)(=O)Nc2cccc(Cl)c2)cc1
6. O=C1CCCN1c1ccc(S(=O)(=O)Nc2cccc(I)c2)cc1
7. O=C1CCCN1c1ccc(S(=O)(=O)Nc2ccccc2-c2ccccc2)cc1
8. O=C1CCCN1c1ccc(S(=O)(=O)Oc2cccc(Br)c2)cc1

Result block:
[4.9, 4.2, 3.8, 3.9, 10.6, 6.8, 3, 13.3]

====

Task for the reader: assign each of the following compounds its reported log10(IC50).
- Tested on: MCF7
- EXPERIMENT_NOTES: Antiproliferative activity against human MCF7 cells assessed as reduction in cell viability measured after 48 hrs by sulforhodamine B assay
- Type: functional, cell-based
- RUN_CONDITIONS: MCF7, 48 h
# values: log10(IC50), units nM

# count of solved cases: 2
[
  {
    "COMPOUND_STRUCTURE": "COc1cccc(NS(=O)(=O)c2ccc(N3CCCC3=O)cc2)c1",
    "log10(IC50)": 3.04
  },
  {
    "COMPOUND_STRUCTURE": "O=C1CCCN1c1ccc(S(=O)(=O)Nc2ccccc2-c2ccccc2)cc1",
    "log10(IC50)": 2.98
  }
]

Take each entry in turn and give its log10(IC50).
1. O=C1CCCN1c1ccc(S(=O)(=O)Nc2ccccc2)cc1
2. O=C1CCCN1c1ccc(S(=O)(=O)Nc2cccc(Cl)c2)cc1
3. COc1cccc(OS(=O)(=O)c2ccc(N3CCCC3=O)cc2)c1
4. CC(C)c1ccccc1OS(=O)(=O)c1ccc(N2CCCC2=O)cc1
5. O=C1CCCN1c1ccc(S(=O)(=O)Oc2cccc(Br)c2)cc1
6. COc1ccc(NS(=O)(=O)c2ccc(N3CCCC3=O)cc2)cc1
7. COc1ccc(OS(=O)(=O)c2ccc(N3CCCC3=O)cc2)cc1
8. O=C1CCCN1c1ccc(S(=O)(=O)Oc2ccccc2-c2ccccc2)cc1

Result block:
1. 3.45
2. 2.75
3. 2.00
4. 2.70
5. 1.78
6. 3.66
7. 3.66
8. 2.32

Query block: Give its log10(IC50) value. Item: `O=C1CCCN1c1ccc(S(=O)(=O)Oc2cccc(Cl)c2)cc1`
Result block: 2.15
